molecular target: UniProt:O00574; assay: CXCR6 and CXCR5 receptor antagonist panel, profiling panel, selectivity assay for CXCR6 antagonist project, cell-based, CHO-K1 PathHunter beta-arrestin, luminescence, set 4 (AID 651919); conditions: CHO-K1 PathHunter CXCR6 beta-arrestin, CXCR6, mean of runs
The source made the active and inactive calls.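 How the source made its calls: active means CXCR6 IC50 below 5 µM, and the CXCR5 counter screen gives no IC50 under five times the CXCR6 IC50; inactive means the rest.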
measure: IC50

compound	IC50
COc1cccc(C(=O)NC2CC3CCCC(C2)N3CC(=O)Nc2ccc(Cl)cc2)c1 (stereo not given)	> 79 µM (inactive)
O=C(CN1C2CCCC1CC(NC(=O)c1ccc3c(c1)OCO3)C2)Nc1ccc(F)cc1 (stereo not given)	> 79 µM (inactive)
COc1ccc(NC(=O)CN2C3CCCC2CC(NC(=O)c2cc(OC)cc(OC)c2)C3)cc1 (stereo not given)	> 79 µM (inactive)
COc1ccc(NC(=O)CN2C3CCCC2CC(NC(=O)c2ccc(OC)cc2)C3)cc1 (stereo not given)	> 79 µM (inactive)
Cc1ccc(NC(=O)CN2C3CCCC2CC(NC(=O)c2ccc4c(c2)OCO4)C3)cc1 (stereo not given)	> 79 µM (inactive)

Task item: Name the recorded IC50 for COc1ccc(C(=O)NC2CC3CCCC(C2)N3CC(=O)Nc2ccc(C)cc2)cc1OC (stereo not given) .
Reply: > 79 µM (inactive)

Task item: Same question, COc1ccc(CN2C3CCCC2CC(NC(=O)c2cc(OC)c(OC)c(OC)c2)C3)cc1 (stereo not given) this time
Reply: inactive

Task item: Check COc1ccc(C(=O)NC2CC3CCCC(C2)N3CC(=O)Nc2ccc(C)cc2)cc1 (stereo not given) too.
Reply: > 79 µM (inactive)

====

biological target: C-X-C chemokine receptor type 5 (Homo sapiens); assay: CXCR6 and CXCR5 receptor antagonist panel, profiling panel, selectivity assay for CXCR6 antagonist project, cell-based, CHO-K1 PathHunter beta-arrestin, luminescence, set 4 (AID 651919); conditions: CHO-K1 PathHunter CXCR5 beta-arrestin, CXCR5, mean of runs
Calls of active or inactive are those of the source.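 Rule for the calls: active = CXCR6 IC50 below 5 µM, and the CXCR5 counter screen gives no IC50 under five times the CXCR6 IC50; inactive = the rest.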
Returns: one label drawn from active, inactive

Task item: Please share the test call associated with O=C(CN1C2CCCC1CC(NC(=O)c1ccc3c(c1)OCO3)C2)Nc1ccc(F)cc1 (stereo not given) .
Reply: inactive

====

biological target: C-X-C chemokine receptor type 6 (Homo sapiens) (UniProt O00574); test: CXCR6 and CXCR5 receptor antagonist panel, profiling panel, selectivity assay for CXCR6 antagonist project, cell-based, CHO-K1 PathHunter beta-arrestin, luminescence, set 4 (AID 651919); conditions: CHO-K1 PathHunter CXCR6 beta-arrestin, CXCR6, mean of runs
Sequence (O00574 whole entry, looked up): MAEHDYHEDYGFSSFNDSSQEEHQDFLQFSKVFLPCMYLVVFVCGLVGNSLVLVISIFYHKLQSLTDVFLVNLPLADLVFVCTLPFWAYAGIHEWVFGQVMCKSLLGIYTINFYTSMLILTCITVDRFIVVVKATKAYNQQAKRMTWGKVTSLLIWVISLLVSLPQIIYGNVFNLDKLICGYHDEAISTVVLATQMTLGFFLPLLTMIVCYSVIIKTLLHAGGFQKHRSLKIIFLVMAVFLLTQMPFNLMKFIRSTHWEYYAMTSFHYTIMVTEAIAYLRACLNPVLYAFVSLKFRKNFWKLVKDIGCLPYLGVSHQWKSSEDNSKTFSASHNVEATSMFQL
Active and inactive are the calls of the source.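 How the source made its calls: active means CXCR6 IC50 below 5 µM, and the CXCR5 counter screen gives no IC50 under five times the CXCR6 IC50; inactive means the rest.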
Respond using exactly one of the listed classes: Y = active, N = inactive

Examples with answers:
compound	label.class
O=C(CN1C2CCCC1CC(NC(=O)c1ccc3c(c1)OCO3)C2)Nc1ccc(Cl)cc1 (centres undefined)	N
COc1cccc(C(=O)NC2CC3CCCC(C2)N3CC(=O)Nc2ccc(F)cc2)c1 (centres undefined)	N
COc1ccccc1NC(=O)CN1C2CCCC1CC(NC(=O)c1cc(OC)c(OC)c(OC)c1)C2 (centres undefined)	Y
COc1cccc(C(=O)NC2CC3CCCC(C2)N3CC(=O)Nc2ccccc2)c1 (centres undefined)	N
COc1ccc(C(=O)NC2CC3CCCC(C2)N3CC(=O)Nc2ccc(Cl)cc2)cc1 (centres undefined)	N
COc1cc(C(=O)NC2CC3CCCC(C2)N3CC(=O)Nc2ccc(C)cc2)cc(OC)c1OC (centres undefined)	N
COc1ccc(C(=O)NC2CC3CCCC(C2)N3CC(=O)Nc2ccccc2)cc1OC (centres undefined)	N
COc1ccc(C(=O)NC2CC3CCCC(C2)N3CC(=O)Nc2ccccc2)cc1 (centres undefined)	N

Okay, now this compound:
Task item: Assay outcome for COc1cc(OC)cc(C(=O)NC2CC3CCCC(C2)N3CC(=O)Nc2ccc(Cl)cc2)c1 (centres undefined) : what was it?
Reply: N

====

target: C-X-C chemokine receptor type 6 (Homo sapiens) (UniProt O00574); assay: CXCR6 and CXCR5 receptor antagonist panel, profiling panel, selectivity assay for CXCR6 antagonist project, cell-based, CHO-K1 PathHunter beta-arrestin, luminescence, set 4 (AID 651919); conditions: CHO-K1 PathHunter CXCR6 beta-arrestin, CXCR6, mean of runs
Activity calls are given as the source filed them.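 How the source made its calls: active means CXCR6 IC50 below 5 µM, and the CXCR5 counter screen gives no IC50 under five times the CXCR6 IC50; inactive means the rest.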
# IC50 annotations

Some compounds with known IC50 results, for comparison:
compound	IC50
COc1ccc(NC(=O)CN2C3CCCC2CC(NC(=O)c2ccc4c(c2)OCO4)C3)cc1 (stereo not drawn)	> 79 µM (inactive)
COc1cccc(C(=O)NC2CC3CCCC(C2)N3CC(=O)Nc2ccc(C)cc2)c1 (stereo not drawn)	> 79 µM (inactive)

// next entry
Task item: Suppose we examine the compound COc1cc(C(=O)NC2CC3CCCC(C2)N3CC(=O)Nc2ccc(Cl)cc2)cc(OC)c1OC (stereo not drawn) ; what IC50 value has been reported?
Reply: 1.48 µM

====

target: C-X-C chemokine receptor type 5 (Homo sapiens) (UniProt P32302); test: CXCR6 and CXCR5 receptor antagonist panel, profiling panel, selectivity assay for CXCR6 antagonist project, cell-based, CHO-K1 PathHunter beta-arrestin, luminescence, set 4 (AID 651919); conditions: CHO-K1 PathHunter CXCR5 beta-arrestin, CXCR5, mean of runs
Calls of active or inactive are those of the source.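 How the source made its calls: active means CXCR6 IC50 below 5 µM, and the CXCR5 counter screen gives no IC50 under five times the CXCR6 IC50; inactive means the rest.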
Select the matching outcome among t (active), f (inactive)

compound	label.class
COc1cccc(C(=O)NC2CC3CCCC(C2)N3CC(=O)Nc2ccc(C)cc2)c1 (centres undefined)	f
COc1ccc(C(=O)NC2CC3CCCC(C2)N3CC(=O)Nc2ccc(Cl)cc2)cc1 (centres undefined)	f
COc1cc(OC)cc(C(=O)NC2CC3CCCC(C2)N3CC(=O)Nc2ccccc2)c1 (centres undefined)	t
Cc1ccc(NC(=O)CN2C3CCCC2CC(NC(=O)c2ccc4c(c2)OCO4)C3)cc1 (centres undefined)	f
COc1cccc(C(=O)NC2CC3CCCC(C2)N3CC(=O)Nc2ccccc2)c1 (centres undefined)	f

Task item: Given COc1ccc(NC(=O)CN2C3CCCC2CC(NC(=O)c2cc(OC)c(OC)c(OC)c2)C3)cc1 (centres undefined) , state the outcome it received in this test.
Reply: f

Task item: Input COc1ccc(C(=O)NC2CC3CCCC(C2)N3CC(=O)Nc2ccccc2)cc1 (centres undefined)
Reply: f

Task item: # repeat for COc1cc(C(=O)NC2CC3CCCC(C2)N3CC(=O)Nc2ccc(Cl)cc2)cc(OC)c1OC (centres undefined)
Reply: f

Task item: Quick one: COc1ccc(NC(=O)CN2C3CCCC2CC(NC(=O)c2cccc(OC)c2)C3)cc1 (centres undefined)
Reply: f

====

target: C-X-C chemokine receptor type 6 (Homo sapiens) (UniProt O00574); test: CXCR6 and CXCR5 receptor antagonist panel, profiling panel, selectivity assay for CXCR6 antagonist project, cell-based, CHO-K1 PathHunter beta-arrestin, luminescence, set 4 (AID 651919); settings: CHO-K1 PathHunter CXCR6 beta-arrestin, CXCR6, mean of runs
The source made the active and inactive calls.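 How the source made its calls: active means CXCR6 IC50 below 5 µM, and the CXCR5 counter screen gives no IC50 under five times the CXCR6 IC50; inactive means the rest.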
measure: IC50

Some compounds with known IC50 results, for comparison:
compound	IC50
COc1cc(OC)cc(C(=O)NC2CC3CCCC(C2)N3CC(=O)Nc2ccccc2)c1 (configuration not stated)	> 79 µM (inactive)
COc1ccc(C(=O)NC2CC3CCCC(C2)N3CC(=O)Nc2ccc(Cl)cc2)cc1OC (configuration not stated)	> 79 µM (inactive)
O=C(CN1C2CCCC1CC(NC(=O)c1ccccc1)C2)Nc1ccccc1 (configuration not stated)	> 79 µM (inactive)
COc1ccc(C(=O)NC2CC3CCCC(C2)N3CC(=O)Nc2ccc(F)cc2)cc1 (configuration not stated)	> 79 µM (inactive)
COc1cc(C(=O)NC2CC3CCCC(C2)N3CC(=O)Nc2ccc(F)cc2)cc(OC)c1OC (configuration not stated)	inactive

Task item: I would be grateful if you could share the reported IC50 for O=C(CN1C2CCCC1CC(NC(=O)c1ccc3c(c1)OCO3)C2)Nc1ccccc1 (configuration not stated) .
Reply: > 79 µM (inactive)

Task item: // query: COc1cc(OC)cc(C(=O)NC2CC3CCCC(C2)N3CC(=O)Nc2ccc(C)cc2)c1 (configuration not stated)
Reply: > 79 µM (inactive)

Task item: Same for COc1ccc(NC(=O)CN2C3CCCC2CC(NC(=O)c2cccc(OC)c2)C3)cc1 (configuration not stated)
Reply: > 79 µM (inactive)

Task item: Please answer likewise for COc1cc(OC)cc(C(=O)NC2CC3CCCC(C2)N3CC(=O)Nc2ccc(F)cc2)c1 (configuration not stated)
Reply: > 79 µM (inactive)

Task item: Same question for COc1ccc(NC(=O)CN2C3CCCC2CC(NC(=O)c2cc(OC)c(OC)c(OC)c2)C3)cc1 (configuration not stated) please.
Reply: inactive

Task item: Another compound to check: COc1ccc(C(=O)NC2CC3CCCC(C2)N3CC(=O)Nc2ccc(F)cc2)cc1OC (configuration not stated)
Reply: > 79 µM (inactive)

Task item: And what about the compound COc1ccc(NC(=O)CN2C3CCCC2CC(NC(=O)c2ccc(OC)c(OC)c2)C3)cc1 (configuration not stated) ?
Reply: > 79 µM (inactive)
